test system: ZR-75-1 Tam1; test: drug sensitivity score (DSS) (DSS (dimensionless)); higher = more sensitive; extreme values may be limits of the assay; settings: 4-OH-tamoxifen in medium 1 µM; 72 h
Where a name gives a salt, the structure may show the parent alone.
recorded_metric: drug sensitivity score
# respond with the number and nothing more

Below: 10 compounds and their reported drug sensitivity score.
compound	drug sensitivity score
CNC(=O)c1cc(Oc2ccc(NC(=O)Nc3ccc(Cl)c(C(F)(F)F)c3)c(F)c2)ccn1	0.695
CC/C(=C(\c1ccccc1)c1ccc(OCCN(C)C)cc1)c1ccccc1 [Tamoxifen citrate]	0.0116
CC(C)C[C@H](NC(=O)[C@H](Cc1ccccc1)NC(=O)c1cnccn1)B(O)O	13.9
CC1(C)CNc2cc(NC(=O)c3cccnc3NCc3ccncc3)ccc21	0
O=P(O)(O)C(O)(Cn1ccnc1)P(=O)(O)O	0
CCc1c2c(nc3ccc(OC(=O)N4CCC(N5CCCCC5)CC4)cc13)-c1cc3c(c(=O)n1C2)COC(=O)[C@]3(O)CC	3.21
O=C(Nc1c[nH]nc1-c1nc2ccc(CN3CCOCC3)cc2[nH]1)NC1CC1	0
N[C@@H](CSC(c1ccccc1)(c1ccccc1)c1ccccc1)C(=O)O	0
COc1cc(Nc2ncc3c(n2)-c2ccc(Cl)cc2C(c2c(F)cccc2OC)=NC3)ccc1C(=O)O	0
CCOc1cc2ncc(C#N)c(Nc3ccc(OCc4ccccn4)c(Cl)c3)c2cc1NC(=O)/C=C/CN(C)C	0

What is its drug sensitivity score for ZR-75-1 Tam1? Entry: `Nc1ccccc1NC(=O)c1ccc(CNC(=O)OCc2cccnc2)cc1` 1.06

Also `O=C(O)C(=O)O.[NH-][C@@H]1CCCC[C@H]1[NH-].[Pt+2]` , if possible. 0

Try `CO[C@H]1C[C@@H]2CC[C@@H](C)[C@@](O)(O2)C(=O)C(=O)N2CCCC[C@H]2C(=O)O[C@H]([C@H](C)C[C@@H]2CC[C@@H](OP(C)(C)=O)[C@H](OC)C2)CC(=O)[C@H](C)/C=C(\C)[C@@H](O)[C@@H](OC)C(=O)[C@H](C)C[C@H](C)/C=C/C=C/C=C/1C` next. 5.15

Then this compound: Cn1c(CCCC(=O)O)nc2cc(N(CCCl)CCCl)ccc21 [Bendamustine (hydrochloride hydrate)] 0

Input `COC(=O)c1ccc2c(c1)NC(=O)/C2=C(\Nc1ccc(N(C)C(=O)CN2CCN(C)CC2)cc1)c1ccccc1` 0

Next up: CN(C)CCN1C(=O)c2cccc3cc(N)cc(c23)C1=O [Amonafide] 0.0369

Next compound up: `CNC(=O)c1ccc(N2C(=S)N(c3ccc(C#N)c(C(F)(F)F)c3)C(=O)C23CCC3)cc1F` 0

Same lookup for `COc1cc2c(Oc3ccc(NC(=O)C4(C(=O)Nc5ccc(F)cc5)CC4)cc3F)ccnc2cc1OCCCN1CCOCC1` , please. 0

Value source: the supplement of paper PMC4932681
